measurement_notes: Solubility of cannabidiol isolate in glycerol/propylene glycol/water solutions
Format: physicochemical
condition_summary: glycerol/propylene glycol/water solution, organic solvent or mixture; Isolate 10 mg/mL; Glycerol 36, PG 47.09, Water 16 (w/w)
quantity_name: soluble at 10 mg/mL (yes/no)

soluble at 10 mg/mL (yes/no) for C=C(C)[C@@H]1CCC(C)=C[C@H]1c1c(O)cc(CCCCC)cc1O [Isolate, cannabidiol] ? < 10000 µg/mL
